Listed here are compounds together with their documented BMX covalent adduct fraction, 240 min.
Measured Target: kinase domain of BMX (Homo sapiens, UniProt P51813)
Construct: The kinase domains of JAK3 and BMX at 2 μM
Sequence (P51813 417-675 limits assumed): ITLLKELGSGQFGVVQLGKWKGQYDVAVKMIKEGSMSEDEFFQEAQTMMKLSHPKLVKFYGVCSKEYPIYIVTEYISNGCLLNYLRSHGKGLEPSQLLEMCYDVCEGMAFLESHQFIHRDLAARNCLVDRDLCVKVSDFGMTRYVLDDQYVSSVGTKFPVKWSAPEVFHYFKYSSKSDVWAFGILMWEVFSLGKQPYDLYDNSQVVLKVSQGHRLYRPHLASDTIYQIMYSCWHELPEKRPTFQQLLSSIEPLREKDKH
Assay Procedure: Mass spectrometric investigation of covalent binding to BMX (ESI-TOF)
Assay Context: 1.5-fold molar excess of inhibitor, 4 °C, 240 min
Report only the number, with the unit % understood.

Some compounds with recorded BMX covalent adduct fraction, 240 min:
C=CC(=O)Nc1cccc(-c2c[nH]c3ncc(NC(=O)c4cccs4)cc23)c1 [Compound 12c]	100
C=CC(=O)Nc1cccc(-c2c[nH]c3ncc(NC(=O)Cc4cccs4)cc23)c1 [Compound 12i]	100
C=CC(=O)Nc1cccc(-c2c[nH]c3ncc(NC(=O)CC4CCCC4)cc23)c1 [Compound 12g]	100

Asked: Given the compound C=CC(=O)Nc1cccc(-c2c[nH]c3ncc(C(=O)NC4CCCC4)cc23)c1 [Compound 11a] , what is its reported BMX covalent adduct fraction, 240 min?
Given back: 97

Asked: Look up BMX covalent adduct fraction, 240 min for this compound: C=CC(=O)Nc1cccc(-c2c[nH]c3ncccc23)c1 [Compound 9a]
Given back: 100

Asked: Can you share its BMX covalent adduct fraction, 240 min? I mean this compound: C=CC(=O)Nc1cccc(-c2c[nH]c3ncc(C(N)=O)cc23)c1 [Compound 10a]
Given back: 100

Entry source: paper PMC7730235
